Target: HLA-A*03:01
Assay: IEDB peptide-MHC binding, purified MHC/competitive/radioactivity; filed as Kd, often an IC50 or EC50 that approximates it; bounds were set here for any values at or beyond the usual limits of such assays
Details: source organism: Vaccinia virus WR
measurement_label: pKd
Keep in mind that pKd stands for -log10 of concentration in molar terms.

Please review the entries below; each comes with its answer.
{"columns": ["seq_string", "measurement_label", "readout_value"],
 "data": [
  ["MLEGETKLY", "pKd", 6.66],
  ["VIILAALFMY", "pKd", 5.58],
  ["TAIKEVVMAY", "pKd", 5.35]
]}

[Q] Note pKd for the sequence shown: QFVDINRNNK
[A] 5.73

[Q] Quote pKd reported for KTKISVEKIK please.
[A] 5.38

[Q] // Input: ITDNGPMPY . Output its pKd only.
[A] 5.30

[Q] Return pKd for the following sequence: DLIKKSDAKR
[A] 5.20

[Q] For the sequence DMMFINSTCY , give its reported pKd.
[A] 6.09

[Q] Provide measured pKd value, entry: LSSKGLACY
[A] 6.11

[Q] // fetch pKd given entry IVTFRERYSY
[A] 6.33

[Q] Fill in reported pKd for this entry: LTQIFEVYWY
[A] 6.00

[Q] State its pKd for this sequence: KAPNVISSK
[A] 8.72

[Q] Give pKd for DIFVSLVKK
[A] 5.00

[Q] Assign pKd to the following record: FIKYVNGWVK
[A] 8.75

[Q] Identify measured pKd associated with WIKDIMTSTR
[A] 5.66

---

Target: HLA-A*26:01
Assay: IEDB peptide-MHC binding, purified MHC/direct/fluorescence; filed as Kd, often an IC50 or EC50 that approximates it; bounds were set here for any values at or beyond the usual limits of such assays
Settings: source organism: Influenza A virus(A/swine/Shandong/fNY/2003(H9N2))
pKd: −log10 of the molar value.
measurement_label: pKd

[Q] Please indicate pKd recorded for FPNEVGARI
[A] ≤ 4.70

---

Target: HLA-C*14:02
Assay: IEDB peptide-MHC binding, purified MHC/direct/fluorescence; filed as Kd, often an IC50 or EC50 that approximates it; bounds were set here for any values at or beyond the usual limits of such assays
Conditions: source organism: Bacillus anthracis str. A2012
measurement_label: pKd
# pKd = -log10(concentration in molar units)

[Q] Identify the reported pKd for the following entry. SMFDSWGPF
[A] 6.73

---

Target: HLA-B*08:01
Test: IEDB peptide-MHC binding, purified MHC/direct/fluorescence; filed as Kd, often an IC50 or EC50 that approximates it; bounds were set here for any values at or beyond the usual limits of such assays
Conditions: source organism: Salmonella enterica subsp. enterica serovar Typhimurium str. LT2
pKd: −log10 of the molar value.
measurement_label: pKd

[Q] Write down pKd measured for item YSDIFNNVL
[A] ≤ 4.70

---

Target: HLA-B*18:01
Assay: IEDB peptide-MHC binding, purified MHC/competitive/fluorescence; filed as Kd, often an IC50 or EC50 that approximates it; bounds were set here for any values at or beyond the usual limits of such assays
Details: source organism: Candida albicans SC5314
pKd: −log10 of the molar value.
measurement_label: pKd

[Q] Return pKd (reported value) for this sequence: RVYNNTARY
[A] ≤ 4.70

---

Molecular target: HLA-B*44:03
Experiment: IEDB peptide-MHC binding, purified MHC/competitive/radioactivity; filed as Kd, often an IC50 or EC50 that approximates it; bounds were set here for any values at or beyond the usual limits of such assays
Details: source organism: SARS coronavirus Tor2
measurement_label: pKd
Just so you know, pKd here is -log10 of the concentration in molar units; reply with that number alone.

Example results:
{"columns": ["seq_string", "pKd"],
 "data": [
  ["RELYLNSSNV", 5.97],
  ["GEILLLEWLA", 6.96],
  ["TEVMPVSMA", 5.41],
  ["MEKLKALVA", 6.56]
]}

[Q] Report pKd for NEYTGNYQCG
[A] 5.12

---

Biological target: HLA-B*18:01
Assay: IEDB peptide-MHC binding, purified MHC/competitive/fluorescence; filed as Kd, often an IC50 or EC50 that approximates it; bounds were set here for any values at or beyond the usual limits of such assays
Conditions: source organism: Escherichia coli HS
pKd: −log10 of the molar value.
measurement_label: pKd

[Q] Give recorded pKd. ISLWGSLLK
[A] ≤ 4.70

---

Biological target: HLA-B*44:03
Assay: IEDB peptide-MHC binding, purified MHC/competitive/radioactivity; filed as Kd, often an IC50 or EC50 that approximates it; bounds were set here for any values at or beyond the usual limits of such assays
Settings: source organism: Lymphocytic choriomeningitis virus (strain Armstrong)
measurement_label: Kd (nM)
Unit nM implied. Number only.

[Q] GET Kd | system: HLA-B*44:03 | item: SENDWFSCM
[A] 22.2

---

Molecular target: HLA-A*24:02
Assay: IEDB peptide-MHC binding, purified MHC/competitive/radioactivity; filed as Kd, often an IC50 or EC50 that approximates it; bounds were set here for any values at or beyond the usual limits of such assays
Conditions: source organism: Lassa virus GA391
measurement_label: Kd

[Q] Give the measured Kd for YCNYSRYWY
[A] ≥ 77.5 µM

---

Target: HLA-B*53:01
Assay: IEDB peptide-MHC binding, purified MHC/competitive/fluorescence; filed as Kd, often an IC50 or EC50 that approximates it; bounds were set here for any values at or beyond the usual limits of such assays
Details: source organism: Burkholderia mallei SAVP1
measurement_label: Kd

[Q] Quote HLA-B*53:01 Kd for entry NVMDPMHGA .
[A] ≥ 5 µM

---

Target: HLA-C*05:01
Experiment: IEDB peptide-MHC binding, purified MHC/direct/fluorescence; filed as Kd, often an IC50 or EC50 that approximates it; bounds were set here for any values at or beyond the usual limits of such assays
Settings: source organism: Salmonella enterica subsp. enterica serovar Typhimurium str. LT2
measurement_label: pKd
Hey, just a heads up that pKd is the negative log base 10 of the concentration in molar.

[Q] Report the value of pKd obtained on HLA-C*05:01 for YSDIFNNVL .
[A] 8.30

---

Molecular target: HLA-A*30:01
Test: IEDB peptide-MHC binding, purified MHC/direct/fluorescence; filed as Kd, often an IC50 or EC50 that approximates it; bounds were set here for any values at or beyond the usual limits of such assays
Details: source organism: Vibrio parahaemolyticus
measurement_label: Kd

[Q] Give reported Kd value for GRNSRFPDK
[A] ≥ 5 µM

---

Catalogue of sequences with associated Kd
Biological target: HLA-B*18:01
Assay: IEDB peptide-MHC binding, purified MHC/competitive/radioactivity; filed as Kd, often an IC50 or EC50 that approximates it; bounds were set here for any values at or beyond the usual limits of such assays
Settings: source organism: Mammarenavirus lassaense
Provide only the numeric value, understood in µM.

{"columns": ["seq_string", "measurement_label", "output_unit", "readout_value"],
 "data": [
  ["SEAQMSIQLI", "Kd", "µM", 13.9]
]}

Note: attention shifts to another entry.
[Q] Provide Kd, recorded with HLA-B*18:01, of HDFGIPTPS
[A] 18.2

---

Target: HLA-A*31:01
Experiment: IEDB peptide-MHC binding, purified MHC/competitive/radioactivity; filed as Kd, often an IC50 or EC50 that approximates it; bounds were set here for any values at or beyond the usual limits of such assays
Conditions: source organism: Dengue virus 3 Sri Lanka/1266/2000
measurement_label: Kd (nM)
Provide the reading as a plain figure in nM.

[Q] // Input: RTLGRNKRPR . Output its Kd only.
[A] 6.81

---

As shown below, each of these sequences has a reported Kd value.
Biological target: HLA-A*33:01
Assay: IEDB peptide-MHC binding, purified MHC/competitive/radioactivity; filed as Kd, often an IC50 or EC50 that approximates it; bounds were set here for any values at or beyond the usual limits of such assays
Settings: source organism: Vaccinia virus WR
Only the number, expressed in µM, is required.

{"columns": ["seq_string", "system_name", "measurement_label", "output_unit", "readout_value"],
 "data": [
  ["TMRIYCSLFK", "HLA-A*33:01", "Kd", "µM", 0.0935],
  ["DLIKKSDAKR", "HLA-A*33:01", "Kd", "µM", 0.00897],
  ["CLLAISAVY", "HLA-A*33:01", "Kd", "µM", 8.53]
]}

[Q] Retrieve Kd measured for ISIISIRPR and print it.
[A] 0.701

[Q] Output Kd of GFEARIVDK
[A] 10.3

[Q] Report Kd for STTDAEACY
[A] 17.4

[Q] Report Kd, nothing else, for this sequence: ETLNEYKQLY
[A] 0.541

[Q] Report Kd, nothing else, for this sequence: IVTVTTKDY
[A] 18.4
